Listing of entries alongside the reported % bound.
test system: T1, human collagen type I, acid soluble, extracted from placenta (Sigma C7774) (human, UniProt P02452 162-1218; P08123 80-1119)
T1 construct: tissue extract, gelled and dried in wells; also called dried human collagen; h-Collagen
T1 sequence (P02452 162-1218 limits assumed, chain 1 of 2): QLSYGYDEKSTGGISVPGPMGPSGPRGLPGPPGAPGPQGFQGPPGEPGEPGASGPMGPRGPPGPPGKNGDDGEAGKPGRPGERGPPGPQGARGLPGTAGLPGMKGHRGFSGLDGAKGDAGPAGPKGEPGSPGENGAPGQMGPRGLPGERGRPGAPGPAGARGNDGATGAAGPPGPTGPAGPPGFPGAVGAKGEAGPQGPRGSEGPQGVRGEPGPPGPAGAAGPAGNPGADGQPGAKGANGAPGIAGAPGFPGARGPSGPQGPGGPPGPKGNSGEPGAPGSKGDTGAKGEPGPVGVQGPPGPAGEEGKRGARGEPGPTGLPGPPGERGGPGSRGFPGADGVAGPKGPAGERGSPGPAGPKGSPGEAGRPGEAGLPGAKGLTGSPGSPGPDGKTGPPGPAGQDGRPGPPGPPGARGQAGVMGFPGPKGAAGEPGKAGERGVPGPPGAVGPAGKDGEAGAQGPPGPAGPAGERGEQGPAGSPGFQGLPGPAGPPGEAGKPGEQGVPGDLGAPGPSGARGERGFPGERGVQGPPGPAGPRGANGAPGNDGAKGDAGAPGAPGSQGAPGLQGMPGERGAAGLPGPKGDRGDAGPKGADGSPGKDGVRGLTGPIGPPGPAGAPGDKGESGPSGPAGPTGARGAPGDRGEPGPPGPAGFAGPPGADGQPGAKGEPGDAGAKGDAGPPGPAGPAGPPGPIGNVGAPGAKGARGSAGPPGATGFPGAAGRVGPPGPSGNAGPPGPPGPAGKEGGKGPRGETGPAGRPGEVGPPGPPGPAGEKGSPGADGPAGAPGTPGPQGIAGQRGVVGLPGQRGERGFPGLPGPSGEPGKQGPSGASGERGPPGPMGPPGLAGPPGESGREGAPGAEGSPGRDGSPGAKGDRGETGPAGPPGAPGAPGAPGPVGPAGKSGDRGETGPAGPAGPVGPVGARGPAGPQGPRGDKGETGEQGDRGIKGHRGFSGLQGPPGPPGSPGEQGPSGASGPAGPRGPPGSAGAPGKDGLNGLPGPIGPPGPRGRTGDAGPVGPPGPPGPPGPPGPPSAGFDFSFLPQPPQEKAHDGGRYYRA
T1 sequence (P08123 80-1119 limits assumed, chain 2 of 2): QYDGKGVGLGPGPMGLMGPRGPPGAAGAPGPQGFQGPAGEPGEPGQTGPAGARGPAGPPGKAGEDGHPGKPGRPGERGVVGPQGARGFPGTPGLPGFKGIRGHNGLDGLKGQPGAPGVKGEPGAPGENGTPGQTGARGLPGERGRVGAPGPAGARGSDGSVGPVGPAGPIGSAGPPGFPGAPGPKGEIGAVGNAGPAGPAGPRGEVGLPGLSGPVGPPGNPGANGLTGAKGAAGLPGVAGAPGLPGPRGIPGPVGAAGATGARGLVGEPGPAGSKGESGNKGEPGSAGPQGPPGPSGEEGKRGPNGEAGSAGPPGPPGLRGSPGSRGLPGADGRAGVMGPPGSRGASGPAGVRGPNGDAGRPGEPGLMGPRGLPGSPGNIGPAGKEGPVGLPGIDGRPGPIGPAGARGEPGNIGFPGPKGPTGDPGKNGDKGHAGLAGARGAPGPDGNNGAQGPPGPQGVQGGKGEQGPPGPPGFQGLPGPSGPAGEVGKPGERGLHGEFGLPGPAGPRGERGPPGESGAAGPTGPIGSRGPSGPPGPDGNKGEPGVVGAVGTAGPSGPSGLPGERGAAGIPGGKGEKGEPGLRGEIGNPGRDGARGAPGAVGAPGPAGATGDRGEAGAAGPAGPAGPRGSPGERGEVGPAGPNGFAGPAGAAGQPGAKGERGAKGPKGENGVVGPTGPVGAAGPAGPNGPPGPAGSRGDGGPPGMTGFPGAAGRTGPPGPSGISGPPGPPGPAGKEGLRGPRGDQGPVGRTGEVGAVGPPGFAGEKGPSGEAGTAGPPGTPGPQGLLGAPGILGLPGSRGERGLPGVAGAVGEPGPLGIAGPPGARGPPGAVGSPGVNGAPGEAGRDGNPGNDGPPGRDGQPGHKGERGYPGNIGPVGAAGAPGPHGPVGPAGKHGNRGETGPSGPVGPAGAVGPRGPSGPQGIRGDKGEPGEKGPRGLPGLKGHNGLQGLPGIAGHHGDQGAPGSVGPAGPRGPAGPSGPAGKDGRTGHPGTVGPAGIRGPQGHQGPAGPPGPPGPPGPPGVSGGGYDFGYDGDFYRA
experiment notes: dried collagen assay
Bridge positions count the residues as written; N and C are the ends. Square brackets hold non-standard residues; d marks the D form. Primed or numbered codes have the meaning given here. Side chains are listed from the residue outwards. Ends that are not written are not given here. 1Nal = N[C@@H](Cc1cccc2ccccc12)C(=O)O; Gd^T = not defined here; Gd^T″ = GdDTPA-thiourea; Dap = NC[C@H](N)C(=O)O
result type: % bound (%)

[[record]]
binder = "{Gd^T″}-GQWHCTTDFPH[Dap](Gd^T″)YCLYG (disulfide 5-14) [Compound ID 887]"
assay_value = 0

[[record]]
binder = "{Gd^T}-GQWHCTTRFPHHYCAYG (disulfide 5-14 (inferred); not fully specified (C-terminus); reading uncertain) [Compound ID 855]"
assay_value = 27

[[record]]
binder = "{Gd^T″}-GQWHCYTYFPHHYCLYGK(Gd^T″) (disulfide 5-14 (inferred); not fully specified (C-terminus)) [Compound ID 994]"
assay_value = 86

[[record]]
binder = "{Gd^T″}-GQWTCYGDEYTWYCNYE (disulfide 5-14 (inferred); not fully specified (C-terminus)) [Compound ID 826]"
assay_value = 87

[[record]]
binder = "{Gd^T″}-GQWTCSGDEYAWHCNY[dE] (disulfide 5-14 (inferred); not fully specified (C-terminus)) [Compound ID 832]"
assay_value = 12

[[record]]
binder = "{Gd^T″}-DWTCS[dS]DEYTWHCNYE (disulfide 4-13 (inferred); not fully specified (C-terminus)) [Compound ID 836]"
assay_value = 13

[[record]]
binder = "{Gd^T″}-GK([Gly-Gd^T″])WHCYTYFPHHYCLYG (disulfide 5-14 (inferred)) [Compound ID 943]"
assay_value = 55

[[record]]
binder = "{Gd^T}-GQWHCTTR[1Nal]PHHYCLYG (disulfide 5-14; not fully specified (C-terminus); reading uncertain) [Compound ID 860]"
assay_value = 60

[[record]]
binder = "{Gd^T″}-GAWTCSGDEYTWHCNYE (disulfide 5-14 (inferred); not fully specified (C-terminus)) [Compound ID 830]"
assay_value = 26


Source: patent US20080044360A1
